Target: Recombinant human liver GK1 (GST-GK) (Homo sapiens, UniProt P35557)
Construct: made in house; host or cells: E. coli
Test: In vitro glucokinase activity assay (G6PDH-coupled, NADH, OD340)
Assay type: biochemical
Conditions: concentration of activator that produced a 50% increase in the activity of GK; 5 mM D-glucose, 30° C.
Protocol: Glucokinase In Vitro Assay Protocol: Glucokinase (GK) was assayed by coupling the production of glucose-6-phosphate to the generation of NADH with glucose-6-phosphate dehydrogenase (G6PDH, 0.75-1 kunits/mg; Boehringer Mannheim, Indianapolis, Ind.) from Leuconostoc mesenteroides as the coupling enzyme (Scheme 2). […] After addition of enzyme, the increase in optical density (OD) at 340 nm was monitored spectrophotometrically to determine the rate of change (OD340 per min). […]
reported_property: SC1.5 (µM)

COc1cnc2[nH]c(C(CC3CCCO3)c3ccc(S(C)(=O)=O)cc3)cc2c1 (single isomer, unassigned) [Example 25]: 22.0

[P] CC(C)CC(c1cccc(F)c1)c1cc2cccnc2[nH]1 (stereo not shown)
[Q] CC(C)(O)c1ccc([C@@H](CC2CCCC2)c2cc3cc(F)cnc3[nH]2)cc1 (single isomer, unassigned)
Q) Lab note: record which item had the higher SC1.5, P or Q . Write the label of whichever entry you select.
A) P

----------
Target: Recombinant human liver GK1 (GST-GK) (Homo sapiens, UniProt P35557)
Construct: made in house; host or cells: E. coli
Sequence (P35557 1-466 isoform P35557-2): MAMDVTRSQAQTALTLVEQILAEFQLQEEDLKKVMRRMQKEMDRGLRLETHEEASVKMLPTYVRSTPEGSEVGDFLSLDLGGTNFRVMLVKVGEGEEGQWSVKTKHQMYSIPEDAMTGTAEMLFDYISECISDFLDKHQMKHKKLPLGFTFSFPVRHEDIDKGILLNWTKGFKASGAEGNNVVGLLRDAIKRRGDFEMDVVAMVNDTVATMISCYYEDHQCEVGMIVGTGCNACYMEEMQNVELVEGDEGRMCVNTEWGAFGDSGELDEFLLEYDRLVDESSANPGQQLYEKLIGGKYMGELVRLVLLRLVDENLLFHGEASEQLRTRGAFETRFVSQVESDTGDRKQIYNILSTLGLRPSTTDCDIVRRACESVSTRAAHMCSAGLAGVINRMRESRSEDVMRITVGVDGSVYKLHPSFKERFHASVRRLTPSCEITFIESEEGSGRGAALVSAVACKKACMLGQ
Experiment: In vitro glucokinase activity assay (G6PDH-coupled, NADH, OD340)
Assay type: biochemical
Settings: concentration of activator that produced a 50% increase in the activity of GK; 5 mM D-glucose, 30° C.
reported_property: SC1.5 (µM)

COc1ccc(C(CC2CCCC2)c2cc3cccnc3[nH]2)cn1 (stereo not shown): 3.0

[A] CS(=O)(=O)c1ccc(/C(=C\C2CCCC2)c2cc3cc(F)cnc3[nH]2)cc1
[B] CCOC(=O)C(C)(C)Oc1cnc2[nH]c(C(CC3CCCC3)c3ccc(S(C)(=O)=O)cc3)cc2c1 (stereo not shown)
[C] CC(C)(O)c1ccc([C@@H](CC2CCOCC2)c2cc3cc(F)cnc3[nH]2)cc1F (single isomer, unassigned)
Q) Please list these in order of increasing SC1.5. Thank you! A ranking is expressed here by listing the labels in the requested order.
A) A, C, B
